All values here come from paper PMC4076524.

Molecular target: MlotiK1 CNB domain T284S mutant (Mesorhizobium japonicum, UniProt Q98GN8, T284S)
Sequence (Q98GN8 211-355 T284S limits assumed): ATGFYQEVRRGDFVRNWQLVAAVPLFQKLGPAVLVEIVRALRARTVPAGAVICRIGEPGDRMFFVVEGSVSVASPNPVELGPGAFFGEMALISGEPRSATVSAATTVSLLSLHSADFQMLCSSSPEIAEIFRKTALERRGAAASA
Test: 8-NBD cAMP fluorescence competition binding assay
Metric name: pKd
// scale note: pKd = -log10(conc_M); give the bare number

The molecule identified as Nc1nc2c(ncn2[C@@H]2O[C@@H]3COP(=O)(O)O[C@H]3[C@H]2O)c(=O)[nH]1 [cGMP] registered its pKd at 5.53
